Consider the following compounds and their measured Ratio of Active Ingredient in Dendrimer Solution (ppm) to Active Ingredient in Water (ppm) readings.
testProtocol: Solubility of active constituents in dendrimer solutions by HPLC (Example 26)
Format: physicochemical
measurementContext: Flumetsulam; 10 g/L loading
Protocol: Four PEHAM dendrimers, each at 10 g/L and 100 g/L in water, were used for evaluation. A 15 g of each dendrimer was dissolved in distilled water and made accurately to 150 mL volume. Determination of pH was then made using a calibrated pH meter and electrode. […] Each prepared and filtered solution was examined in a light box for Tyndall Scattering (light scattering by particles in a colloid or particles in a fine suspension). A visual observation was made and recorded for each solution. […]

# example entries with known answers
CCC(COCC(O)CN(CC(=O)[O-])CC(=O)[O-])(COCC(O)CN(CC(=O)[O-])CC(=O)[O-])COCC(O)CN(CC(=O)[O-])CC(=O)[O-].[Na+].[Na+].[Na+].[Na+].[Na+].[Na+] (stereo not shown): 2
CCC(COCC(O)CN(CCO)CCO)(COCC(O)CN(CCO)CCO)COCC(O)CN(CCO)CCO (stereo not shown): 2
CCC(COCC(O)CN(CCOC)CCOC)(COCC(O)CN(CCOC)CCOC)COCC(O)CN(CCOC)CCOC (stereo not shown): 1

Now look at this entry.
[Q] Can you look up the measured Ratio of Active Ingredient in Dendrimer Solution (ppm) to Active Ingredient in Water (ppm) of CCC(COCC(O)CN(CCN)CCN)(COCC(O)CN(CCN)CCN)COCC(O)CN(CCN)CCN (stereo not shown) for me?
[A] 2

====

testProtocol: Solubility of active constituents in dendrimer solutions by HPLC (Example 26)
Format: physicochemical
measurementContext: Thiamethoxam; 100 g/L loading
Below, each entry is listed with its recorded Ratio of Active Ingredient in Dendrimer Solution (ppm) to Active Ingredient in Water (ppm).
Reply briefly: the number, and no unit.

Sample answers from the record:
CCC(COCC(O)CN(CCOC)CCOC)(COCC(O)CN(CCOC)CCOC)COCC(O)CN(CCOC)CCOC (stereo not shown): 2
CCC(COCC(O)CN(CC(=O)[O-])CC(=O)[O-])(COCC(O)CN(CC(=O)[O-])CC(=O)[O-])COCC(O)CN(CC(=O)[O-])CC(=O)[O-].[Na+].[Na+].[Na+].[Na+].[Na+].[Na+] (stereo not shown): 1
CCC(COCC(O)CN(CCO)CCO)(COCC(O)CN(CCO)CCO)COCC(O)CN(CCO)CCO (stereo not shown): 2

From here, focus on the item given below.
[Q] I have this compound here, CCC(COCC(O)CN(CCN)CCN)(COCC(O)CN(CCN)CCN)COCC(O)CN(CCN)CCN (stereo not shown) , and I need its recorded Ratio of Active Ingredient in Dendrimer Solution (ppm) to Active Ingredient in Water (ppm).
[A] 1

From: patent US9585387B1
